SUBJECT_OF_TEST: Bromodomain-containing protein 4 (Homo sapiens)
METHOD: Inhibition of histone binding to BRD4 (unknown origin) expressed in HEK293 cells using histone H3.3 as substrate incubated for 18 to 24 hrs by nano-BRET analysis
Type: cell-based
REPORTED_PROPERTY: pIC50
When answering, recall that pIC50 equals minus log10 of the concentration in mol/L, and write that number alone.

>>> recorded_measurement("C[C@H]1C(=O)N(C)C=Cc2cc(OCCCCCOc3ccc4c(c3)C=CN(C)C(=O)[C@@H]4C)ccc21")
9.20
>>> recorded_measurement("C[C@H]1C(=O)N(C)C=Cc2cc(OCCOc3ccc4c(c3)C=CN(C)C(=O)[C@@H]4C)ccc21")
9.20

Please find the next compound below.
Looking up C[C@H]1C(=O)N(C)C=Cc2cc(OCCCCCCCOc3ccc4c(c3)C=CN(C)C(=O)[C@@H]4C)ccc21 , I found its pIC50 recorded as 9.00

These data points were gathered from ChEMBL document CHEMBL5365519.
